Target: T1, Activin A (UniProt P08476 311-426)
T1 sequence (looked up): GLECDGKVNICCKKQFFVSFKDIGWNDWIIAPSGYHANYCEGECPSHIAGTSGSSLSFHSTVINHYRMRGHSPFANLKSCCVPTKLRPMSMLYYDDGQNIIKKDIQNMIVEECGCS
Assay: cell-based or functional assay
metric: IC50, SBE-luciferase reporter in HEK293 cells
Form entry: enter the amount, then its unit.

binder	observed.result
ActRIIB-A6 (SEQ ID NO: 124) chimera-Fc protein (Fc fusion, Tested as chimera-Fc protein; not shown: linker (if any) and Fc domain) GRGEAETRECIYYNANWELERTNQSGLERCEGEQDKRLHCYASWRNSSGTIELVKKGCWLDDFNCYDRQECVATKDSPEVYFCCCEGNFCNERFTHLPEAGGPEVTYEPPPTAPT	0.089 µg/mL

In the following, a different binder is considered.
Query :: Any idea what IC50, SBE-luciferase reporter in HEK293 cells was measured for ActRIIB-A7 (SEQ ID NO: 125) chimera-Fc protein (Fc fusion, Tested as chimera-Fc protein; not shown: linker (if any) and Fc domain) GRGEAETRECIYYNANWELERTNQSGLERCEGEQDKRLHCYASWRNSSGTIELVKKGCWLDDFNCYDRQECVATEENPQVYFCCCEGNMCNERFTHLPEAGGPEVTYEPPPTAPT ?
Result :: 0.057 µg/mL
